Numbers sourced from ChEMBL document CHEMBL4680189.

test: Immunosuppression-mediated antiproliferative activity against anti-CD3/anti-CD28-stimulated human PBMC cells assessed as inhibition of cell growth incubated for 72 hrs by VPD450 staining based flow cytometry; format: functional
Where a SMILES comes first, the peptide text is derived from it. [ ]: non-standard residue; d: D form. The star is where a group is joined. Mycophenolyl = COc1c(C)c2c(c(O)c1C/C=C(\C)CCC(=O)*)C(=O)OC2; Arg(NO2) = N=C(NCCC[C@H](N)C(=O)O)N[N+](=O)[O-]
Friendly reminder: EC50 below 100 µM is 1, at or above is -1.

- MOLECULE: "COC(=O)[C@H](CCCNC(=N)N[N+](=O)[O-])NC(=O)[C@@H]1CCCN1C(=O)[C@H](CCCCN)NC(=O)[C@@H](NC(=O)CC/C(C)=C/Cc1c(O)c2c(c(C)c1OC)COC2=O)[C@@H](C)O (Mycophenolyl-TKP[Arg(NO2)]-OMe)"
  LABEL: -1
- MOLECULE: "COc1c(C)c2c(c(O)c1C/C=C(\\C)CCC(=O)N[C@@H](CC(=O)O)C(=O)O)C(=O)OC2"
  LABEL: -1
- MOLECULE: "COC(=O)C[C@H](NC(=O)CC/C(C)=C/Cc1c(O)c2c(c(C)c1OC)COC2=O)C(=O)OC"
  LABEL: 1
- MOLECULE: "COc1c(C)c2c(c(O)c1C/C=C(\\C)CCC(=O)N[C@@H](CCCNC(=N)N[N+](=O)[O-])C(=O)O)C(=O)OC2"
  LABEL: -1
- MOLECULE: "COC(=O)[C@@H](CCCNC(=N)N[N+](=O)[O-])NC(=O)CC/C(C)=C/Cc1c(O)c2c(c(C)c1OC)COC2=O"
  LABEL: 1
- MOLECULE: "COC(=O)[C@@H](NC(=O)[C@H](CCCCNC(=O)[C@@H](N)C(C)C)NC(=O)[C@@H]1CCCN1C(=O)[C@H](CCCNC(=N)N[N+](=O)[O-])NC(=O)CC/C(C)=C/Cc1c(O)c2c(c(C)c1OC)COC2=O)[C@@H](C)O (Mycophenolyl-[Arg(NO2)]PK(Val)T-OMe)"
  LABEL: -1
- MOLECULE: "COC(=O)[C@H](CCCNC(=N)N[N+](=O)[O-])NC(=O)[C@@H]1CCCN1C(=O)[C@H](CCCCNC(=O)[C@@H](N)C(C)C)NC(=O)[C@@H](NC(=O)CC/C(C)=C/Cc1c(O)c2c(c(C)c1OC)COC2=O)[C@@H](C)O (Mycophenolyl-TK(Val)P[Arg(NO2)]-OMe)"
  LABEL: -1
- MOLECULE: "COC(=O)[C@@H](NC(=O)[C@H](CCCCNC(=O)[C@@H](N)CC(C)C)NC(=O)[C@@H]1CCCN1C(=O)[C@H](CCCNC(=N)N[N+](=O)[O-])NC(=O)CC/C(C)=C/Cc1c(O)c2c(c(C)c1OC)COC2=O)[C@@H](C)O (Mycophenolyl-[Arg(NO2)]PK(Leu)T-OMe)"
  LABEL: -1
- MOLECULE: "COc1c(C)c2c(c(O)c1C/C=C(\\C)CCC(=O)N[C@@H](C(=O)O)[C@H](C)O)C(=O)OC2"
  LABEL: -1
- MOLECULE: "COC(=O)[C@H](NC(=O)CC/C(C)=C/Cc1c(O)c2c(c(C)c1OC)COC2=O)[C@H](C)O"
  LABEL: 1
- MOLECULE: "CC[C@H](C)[C@H](NC(=O)CC/C(C)=C/Cc1c(O)c2c(c(C)c1OC)COC2=O)C(=O)O"
  LABEL: 1
- MOLECULE: "COC(=O)[C@@H](NC(=O)CC/C(C)=C/Cc1c(O)c2c(c(C)c1OC)COC2=O)[C@@H](C)O"
  LABEL: 1
- MOLECULE: "COC(=O)[C@H](CCCNC(=N)N[N+](=O)[O-])NC(=O)[C@@H]1CCCN1C(=O)[C@H](CCCCNC(=O)[C@@H](N)CC(C)C)NC(=O)[C@@H](NC(=O)CC/C(C)=C/Cc1c(O)c2c(c(C)c1OC)COC2=O)[C@@H](C)O (Mycophenolyl-TK(Leu)P[Arg(NO2)]-OMe)"
  LABEL: -1
